Tested on: hrtAB-driven expression of the xylE reporter gene
testSummary: XylE reporter assay (hrtAB promoter-xylE), Newman
Format: cell-based, Staphylococcus aureus
testParameters: level of XylE induction at 0.5 uM of the compound
Method: With reference to Table 1, “Luminescence” refers to the raw luminescence value obtained in a luminomter. “Control (82.5 nm)” refers to the luminescence value obtained from heme at 82.5 nM as a positive control in the same plate as the experimental. “% lum” is the percentage of luminescence induced by the compound as compared to the heme control in the same plate. […] All of these assays are described in the application. […] “N/T” indicates the test was not performed. […]
readout: XylE (0.5)

Use the examples below as a reference point.
Give the reported XylE (0.5) for CCCN1C(=O)/C(=C2/C(=O)N(CC(=O)Nc3ccc(Cl)cc3)c3ccccc32)SC1=S [drawing 28] (system: hrtAB-driven expression of the xylE reporter gene).
0.06

Query CC(/C=N/NC(=O)C1COc2ccccc2O1)=C\c1ccccc1 (stereo not shown) next
0.04

Same lookup for `Cc1cccc(NC(=S)N/N=C/c2cc(Br)ccc2O)c1` , please.
0.2

What about Oc1c(-c2cc(-c3ccco3)[nH]n2)ccc2ccccc12 [drawing 65] ?
0.07

Same thing, different molecule: `O=c1c2ccccc2nc(/C=C\c2ccccc2F)n1-c1ccccc1F`
1

Further cases:
Query for hrtAB-driven expression of the xylE reporter gene: what XylE (0.5) does the record show for `O=C(Nc1ccccc1O)c1cccc(N2C(=O)c3ccc([N+](=O)[O-])cc3C2=O)c1` ?
0.02

Again, but for CC(NC(=O)C1(c2ccccc2)CCCC1)C1COc2ccccc2O1 (stereo not shown) [drawing 45]
0.1

Also `c1cc(-c2ccc3nsnc3c2)c2cc3nsnc3cc2c1` ?
0.06

Record: `CCOC(=O)c1c(C)[nH]c2c1-c1cc(Br)ccc1C(=O)C2=O`
1

// query: `Cc1cc(O)c(NC(=S)NC(=O)c2ccc(C(C)(C)C)cc2)cc1C`
0.2

Param item: `COc1ccc(CN2CCCN(C)CC2)c(C)c1C`
0

Try Cc1ccc(O)c(NC(=O)c2nn3c(c2Br)NC(c2ccco2)CC3C(F)(F)F)c1 (stereo not shown) [drawing 29] next.
0.06

Same for `Oc1ccc(Nc2nc(-c3ccc(Cl)cc3)nc3ccccc23)cc1`
1

How about CCc1ccccc1NC(=O)C1CCCCC1C(=O)O (stereo not shown) ?
0.05

Likewise for `CC(C)c1ccc(NS(=O)(=O)c2ccc3[nH]c(-c4ccccc4)nc3c2)cc1` ?
1

Let us now turn to `O=C(NC(=S)Nc1ccc(Oc2ccccc2)cc1)c1cccs1`
0.01

// repeat for `c1ccc(-c2ccc(CSc3nc4ccccc4[nH]3)cc2)cc1` and report
0.03

`Cc1c(NC(=O)c2ccc(Cl)c([N+](=O)[O-])c2)cccc1-c1nc2ccccc2o1` , same question.
0.06

Check `Oc1ccc(Nc2n[n+](-c3ccc(Cl)cc3)cc3ccccc23)cc1` too.
6

Same lookup for CCCCCCC(=O)NC(NC(=S)Nc1ccccc1O)C(Cl)(Cl)Cl (stereo not shown) , please.
0.2

Follow-up entry: `O=C(COc1nsnc1N1CCOCC1)Nc1ccccc1`
0.05

Entry `Fc1ccc(CNC(=S)Nc2ccc(Oc3ccccc3)cc2)cc1` please
0.05

###

Tested on: HssRS-dependent hrtAB expression
testSummary: Luminescence-based assay to monitor HssRS-dependent hrtAB expression (phrtABlux reporter), Newman
Assay type: cell-based, Staphylococcus aureus
testParameters: Staphylococcus aureus, NEWMAN, read-out: % Lumi, luminescence induced by the compound compared to the heme control (82.5 nM) in the same plate; Newman
readout: activation at 0.0825 µM (%)
Give a bare numeral; the unit % is implied.

For orientation, consider the following solved cases.
Param readout= activation at 0.0825 µM; system= HssRS-dependent hrtAB expression; entry= `CCOC(=O)c1c(C)[nH]c2c1-c1cc(Br)ccc1C(=O)C2=O` ; returns value.
240

Now the compound CC(NC(=O)C1(c2ccccc2)CCCC1)C1COc2ccccc2O1 (centres unmarked) [drawing 26]
266

Cool, now `O=C(Nc1ccc(NC(=O)c2ccccc2)c(Cl)c1)c1ccccc1`
102

Repeat with `NS(=O)(=O)c1ccc(NC(=O)CCCOc2ccc(Cl)cc2Cl)cc1`
45.6

New cases:
Which activation at 0.0825 µM is reported with HssRS-dependent hrtAB expression for this entry: `Cc1cc(O)c(NC(=S)NC(=O)c2ccc(C(C)(C)C)cc2)cc1C` ?
127

One more compound: `CC(C)CSc1nnc(-c2ccccc2)c(-c2ccccc2)n1`
383

###

Test system: hrtAB-driven expression of the xylE reporter gene
testSummary: XylE reporter assay (hrtAB promoter-xylE), Newman
Format: cell-based, Staphylococcus aureus
testParameters: level of XylE induction at 50.0 uM of the compound
# reported XylE (50.0); entries follow
Could you keep your reply to the number by itself?

A selection of reference data follows.
Reported XylE (50.0) for hrtAB-driven expression of the xylE reporter gene, given `COc1cc(OC)cc(C(=O)Nc2ccc(-c3nc4cc(C)ccc4o3)cc2)c1` ?
0

Continue with `Cc1nc(Nc2ccc(Oc3ccccc3)cc2)c2c(C)c(C)sc2n1`
0

Same question, `COc1ccc(-c2cc(-c3ccc(OC)cc3O)n[nH]2)cc1` this time
4

Cool, now `CC(C)CSc1nnc(-c2ccccc2)c(-c2ccccc2)n1`
1

More entries:
Lab request: please report XylE (50.0) under test system hrtAB-driven expression of the xylE reporter gene for `COc1ccc(CCNC(=O)C(=O)Nc2cccc(Cl)c2)cc1OC`
5

Please do the same for O=C1c2ccccc2C(=O)C1C1=NNC(c2ccccc2)C1 (stereo not drawn) as well.
0.8

###

The entries below come with measured XylE (0.5) values attached.
Tested on: hrtAB-driven expression of the xylE reporter gene
testSummary: XylE reporter assay (hrtAB promoter-xylE), Newman
Format: cell-based, Staphylococcus aureus
testParameters: level of XylE induction at 0.5 uM of the compound
Quick one: just the number, no unit, thanks!

Observed XylE (0.5) on hrtAB-driven expression of the xylE reporter gene for O=C(N/N=C/c1ccc(-c2ccc(Br)cc2)o1)C1COc2ccccc2O1 (stereo not drawn) [drawing 48] , please.
0.08

Now the molecule Cc1ccc(NS(=O)(=O)c2ccc3c(c2)Cc2cc(S(=O)(=O)Nc4ccc(C)cc4)ccc2-3)cc1 [drawing 74]
1

Param item: `O=[N+]([O-])c1ccc(O)c(/C=N/c2ccccc2-c2nc3ccccc3s2)c1`
50

Next:
Kindly state the measured XylE (0.5) obtained for Cc1cccc(C(=O)Nc2ccc(-c3nc4ccccc4o3)cc2)c1 [drawing 43] with hrtAB-driven expression of the xylE reporter gene.
0.7

And then `FC(F)(F)c1cccc(Nc2nc(-c3cccnc3)nc3ccccc23)c1` , what is it?
0.02

###

Overview of recorded XylE (50.0) for various compounds
Test system: hrtAB-driven expression of the xylE reporter gene
testSummary: XylE reporter assay (hrtAB promoter-xylE), Newman
Assay type: cell-based, Staphylococcus aureus
testParameters: level of XylE induction at 50.0 uM of the compound
Response field accepts a number only; no unit should be typed.

Endpoint output: XylE (50.0) of `Cc1cc(C)c(S(=O)(=O)Nc2ccc(O)c(-c3c(O)ccc4ccccc34)c2)cc1C` . Value?
0.05

Now try COc1ccc(C2CC(C3C(=O)c4ccccc4C3=O)=NN2)cc1 (stereo not shown) .
0.09

Quick one: CCC(C)NC(=O)c1sc2nc(C)nc(N3CCCCC3)c2c1C (stereo not shown)
7

Cc1cccc(C(=O)N2N=C(c3cccc(Br)c3)CC2(C)C(F)(F)F)c1 (stereo not shown) ?
0.1

Further, for `O=C(Nc1ccncc1)c1ccc(COc2ccccc2Cl)cc1` ?
1

Follow-up entry: CC(C)(C)c1cc2c(c(C(C)(C)C)c1)OC(c1cc([N+](=O)[O-])ccc1O)N2 (stereo not shown)
0.04

# iterate: `O=C(Nc1ccccc1C(=O)Nc1ccc(Cl)cc1)c1ccccc1`
0.06

Now this one: `Cc1ccc(CNC(=O)c2ccc(CSCc3ccccc3Cl)o2)cc1`
0.8

---
Requested field: XylE (50.0). Item: `Oc1ccc(Nc2n[n+](-c3ccc(Cl)cc3)cc3ccccc23)cc1`
0.6

Queued: `CC(C)c1ccc(NS(=O)(=O)c2ccc3[nH]c(-c4ccccc4)nc3c2)cc1`
1

###

Tested on: hrtAB-driven expression of the xylE reporter gene
testSummary: XylE reporter assay (hrtAB promoter-xylE), Newman
Assay type: cell-based, Staphylococcus aureus
testParameters: level of XylE induction at 50.0 uM of the compound
readout: XylE (50.0)
Simply state the number, no unit and no words.

Worked cases, answers included:
I'd like to know its XylE (50.0). The molecule in question is COC(=O)C1=C(C)NC(=O)NC1c1cn(-c2ccccc2)nc1-c1ccc(OC)c(OC)c1 (stereo not shown)
0.05

Try the molecule `O=C(Nc1ccc(C(F)(F)F)cc1)c1cc(S(=O)(=O)NCc2ccc(F)cc2)ccc1F`
0.03

Now the same for `CCOC(=O)c1c(C)[nH]c2c1-c1cc(Br)ccc1C(=O)C2=O`
0.3

Request: `Cc1cc(O)c(NC(=S)NC(=O)c2ccc(C(C)(C)C)cc2)cc1C`
0.3

What about this molecule? `CCOC(=O)c1c(NC(=O)C2CCCCC2)sc(C(=O)Nc2ccc(C)c(Cl)c2)c1C`
1

Further cases:
Dear colleague, I am looking for the recorded XylE (50.0) of the following molecule: `Cc1ccc(-c2nc(Nc3ccc4c(c3)OCO4)c3ccccc3n2)cc1`
0

Same question for O=C(NC(=S)Nc1ccc(-c2nc3ccccc3s2)cc1)c1ccccc1[N+](=O)[O-] [drawing 61] please.
0.8

Same question for `CCOc1ccc(NC(=O)c2sc3nc(C)nc(N4CCCCC4)c3c2C)cc1` please.
1

What about `O=C(/C=C/c1ccc([N+](=O)[O-])s1)Nc1ccc(I)cc1` ?
6

`Cc1cc(-c2ccc(N)cc2)nc2ccc3ccccc3c12` , same question.
0.04

Would you mind doing `C/C(=N/NC(=O)c1cccc(I)c1)c1ccccc1O` as well?
0.3
